B1: full length wild-type GST-SNX9 (sorting nexin 9) [not stated] / clathrin heavy chain (CHC) [human (endogenous in HeLa)] (parent complex)
chain 1: MATKARVMYDFAAEPGNNELTVNEGEIITITNPDVGGGWLEGRNIKGERGLVPTDYVEILPSDGKDQFSCGNSVADQAFLDSLSASTAQASSSAASNNHQVGSGNDPWSAWSASKSGNWESSEGWGAQPEGAGAQRNTNTPNNWDTAFGHPQAYQGPATGDDDDWDEDWDGPKSSSYFKDSESADAGGAQRGNSRASSSSMKIPLNKFPGFAKPGTEQYLLAKQLAKPKEKIPIIVGDYGPMWVYPTSTFDCVVADPRKGSKMYGLKSYIEYQLTPTNTNRSVNHRYKHFDWLYERLLVKFGSAIPIPSLPDKQVTGRFEEEFIKMRMERLQAWMTRMCRHPVISESEVFQQFLNFRDEKEWKTGKRKAERDELAGVMIFSTMEPEAPDLDLVEIEQKCEAVGKFTKAMDDGVKELLTVGQEHWKRCTGPLPKEYQKIGKALQSLATVFSSSGYQGETDLNDAITEAGKTYEEIASLVAEQPKKDLHFLMECNHEYKGFLGCFPDIIGTHKGAIEKVKESDKLVATSKITLQDKQNMVKRVSIMSYALQAEMNHFHSNRIYDYNSVIRLYLEQQVQFYETIAEKLRQALSRFPVM
chain 2: MAQILPIRFQEHLQLQNLGINPANIGFSTLTMESDKFICIREKVGEQAQVVIIDMNDPSNPIRRPISADSAIMNPASKVIALKAGKTLQIFNIEMKSKMKAHTMTDDVTFWKWISLNTVALVTDNAVYHWSMEGESQPVKMFDRHSSLAGCQIINYRTDAKQKWLLLTGISAQQNRVVGAMQLYSVDRKVSQPIEGHAASFAQFKMEGNAEESTLFCFAVRGQAGGKLHIIEVGTPPTGNQPFPKKAVDVFFPPEAQNDFPVAMQISEKHDVVFLITKYGYIHLYDLETGTCIYMNRISGETIFVTAPHEATAGIIGVNRKGQVLSVCVEEENIIPYITNVLQNPDLALRMAVRNNLAGAEELFARKFNALFAQGNYSEAAKVAANAPKGILRTPDTIRRFQSVPAQPGQTSPLLQYFGILLDQGQLNKYESLELCRPVLQQGRKQLLEKWLKEDKLECSEELGDLVKSVDPTLALSVYLRANVPNKVIQCFAETGQVQKIVLYAKKVGYTPDWIFLLRNVMRISPDQGQQFAQMLVQDEEPLADITQIVDVFMEYNLIQQCTAFLLDALKNNRPSEGPLQTRLLEMNLMHAPQVADAILGNQMFTHYDRAHIAQLCEKAGLLQRALEHFTDLYDIKRAVVHTHLLNPEWLVNYFGSLSVEDSLECLRAMLSANIRQNLQICVQVASKYHEQLSTQSLIELFESFKSFEGLFYFLGSIVNFSQDPDVHFKYIQAACKTGQIKEVERICRESNCYDPERVKNFLKEAKLTDQLPLIIVCDRFDFVHDLVLYLYRNNLQKYIEIYVQKVNPSRLPVVIGGLLDVDCSEDVIKNLILVVRGQFSTDELVAEVEKRNRLKLLLPWLEARIHEGCEEPATHNALAKIYIDSNNNPERFLRENPYYDSRVVGKYCEKRDPHLACVAYERGQCDLELINVCNENSLFKSLSRYLVRRKDPELWGSVLLESNPYRRPLIDQVVQTALSETQDPEEVSVTVKAFMTADLPNELIELLEKIVLDNSVFSEHRNLQNLLILTAIKADRTRVMEYINRLDNYDAPDIANIAISNELFEEAFAIFRKFDVNTSAVQVLIEHIGNLDRAYEFAERCNEPAVWSQLAKAQLQKGMVKEAIDSYIKADDPSSYMEVVQAANTSGNWEELVKYLQMARKKARESYVETELIFALAKTNRLAELEEFINGPNNAHIQQVGDRCYDEKMYDAAKLLYNNVSNFGRLASTLVHLGEYQAAVDGARKANSTRTWKEVCFACVDGKEFRLAQMCGLHIVVHADELEELINYYQDRGYFEELITMLEAALGLERAHMGMFTELAILYSKFKPQKMREHLELFWSRVNIPKVLRAAEQAHLWAELVFLYDKYEEYDNAIITMMNHPTDAWKEGQFKDIITKVANVELYYRAIQFYLEFKPLLLNDLLMVLSPRLDHTRAVNYFSKVKQLPLVKPYLRSVQNHNNKSVNESLNNLFITEEDYQALRTSIDAYDNFDNISLAQRLEKHELIEFRRIAAYLFKGNNRWKQSVELCKKDSLYKDAMQYASESKDTELAEELLQWFLQEEKRECFGACLFTCYDLLRPDVVLETAWRHNIMDFAMPYFIQVMKEYLTKVDKLDASESLRKEEEQATETQPIVYGQPQLMLTAGPSVAVPPQAPFGYGYTAPPYGQPQPGFGYSM

variants of: B1; assay: GST pull-down, densitometry of immunoblots; lysates from asynchronously growing HeLa cells; 3-4 independent experiments; parent: 1; read off a plot
Recorded ratio to parent for the following variants

Examples with their reported ratio to parent follow.
[
  {
    "MUTATION LABEL": "chain 1 W108S",
    "ratio to parent": "~0.44"
  },
  {
    "MUTATION LABEL": "chain 1 W108S, chain 1 W111S",
    "ratio to parent": "~0.06"
  },
  {
    "MUTATION LABEL": "chain 1 W165S",
    "ratio to parent": "~0.05"
  }
]

## Task Requested read-out: ratio to parent. Entry: chain 1 W165S, chain 1 W169S
## Result ~0.29
